testedTarget: UniProt:P81908
Sequence (P81908 whole entry): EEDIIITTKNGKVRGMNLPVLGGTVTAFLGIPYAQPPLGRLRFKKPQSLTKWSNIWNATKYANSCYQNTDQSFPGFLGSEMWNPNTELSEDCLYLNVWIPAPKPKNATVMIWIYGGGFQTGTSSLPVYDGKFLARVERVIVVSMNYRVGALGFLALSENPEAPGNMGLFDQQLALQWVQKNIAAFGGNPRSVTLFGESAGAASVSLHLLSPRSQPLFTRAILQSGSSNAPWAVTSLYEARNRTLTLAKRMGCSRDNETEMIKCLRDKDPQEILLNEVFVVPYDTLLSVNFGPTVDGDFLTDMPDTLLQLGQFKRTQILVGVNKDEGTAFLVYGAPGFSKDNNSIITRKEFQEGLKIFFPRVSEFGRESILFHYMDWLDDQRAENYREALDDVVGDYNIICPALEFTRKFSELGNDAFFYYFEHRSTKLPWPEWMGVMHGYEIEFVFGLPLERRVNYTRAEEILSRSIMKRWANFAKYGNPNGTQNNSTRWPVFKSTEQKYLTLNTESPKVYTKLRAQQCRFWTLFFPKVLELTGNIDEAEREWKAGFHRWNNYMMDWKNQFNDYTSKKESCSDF
protocolNotes: Inhibition of equine serum BuChE at 10 uM using butyrylthiocholine chloride as substrate pre-incubated for 5 mins followed by substrate addition and measured after 5 mins by Ellman's method relative to control
measurementKind: inhibition

molecule: c1ccc(CN2CCC(NCCN3CCN(C(c4ccccc4)c4ccccc4)CC3)C2)cc1 (configuration not stated)
inhibition: 46.2%

Please look at this molecule and report its inhibition: c1ccc(CN2CCC(NCCN3CCN(c4ccccc4)CC3)C2)cc1 (configuration not stated)
23.9%

Please look at this molecule and report its inhibition: c1ccc(CCC2CCN(CCCNC3CCN(Cc4ccccc4)C3)CC2)cc1 (configuration not stated)
25.6%

* * *

testedTarget: UniProt O42275
Sequence (O42275 24-633 limits assumed): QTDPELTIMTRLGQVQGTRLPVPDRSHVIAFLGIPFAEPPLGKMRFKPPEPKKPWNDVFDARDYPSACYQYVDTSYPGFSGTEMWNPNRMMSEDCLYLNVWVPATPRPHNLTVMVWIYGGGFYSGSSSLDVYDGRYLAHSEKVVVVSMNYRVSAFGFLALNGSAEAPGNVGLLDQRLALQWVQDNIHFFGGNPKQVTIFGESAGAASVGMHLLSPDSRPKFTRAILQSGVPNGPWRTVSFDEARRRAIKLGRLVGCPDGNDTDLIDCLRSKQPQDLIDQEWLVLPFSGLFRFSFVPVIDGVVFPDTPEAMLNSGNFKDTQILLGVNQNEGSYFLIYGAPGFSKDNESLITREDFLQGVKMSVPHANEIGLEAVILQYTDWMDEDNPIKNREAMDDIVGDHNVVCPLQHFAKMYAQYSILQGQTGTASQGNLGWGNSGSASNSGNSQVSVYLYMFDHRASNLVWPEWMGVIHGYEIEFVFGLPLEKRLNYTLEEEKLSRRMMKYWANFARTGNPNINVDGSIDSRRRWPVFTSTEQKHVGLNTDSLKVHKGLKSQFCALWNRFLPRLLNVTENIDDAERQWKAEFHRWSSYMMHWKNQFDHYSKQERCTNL
protocolNotes: Inhibition of Electrophorus electricus AChE at 10 uM using acetylthiocholine iodide as substrate preincubated for 5 mins followed by substrate addition and measured after 5 mins by Ellman's method relative to control
Reported inhibition is given for each of the following compounds.
Give the value, in units of %, as a plain number.

Solved cases (6 shown):
compound: O=C(CN1CCCC(c2ccccc2)C1)NC1CCN(Cc2ccccc2)C1 (centres undefined)
inhibition, %: 30.6

compound: c1ccc(CN2CCC(NCCN3CCN(C(c4ccccc4)c4ccccc4)CC3)C2)cc1 (centres undefined)
inhibition, %: 27.6

compound: c1ccc(CN2CCC(NCCN3CCCC(c4ccccc4)C3)C2)cc1 (centres undefined)
inhibition, %: 40.8

compound: O=C(CCN1CCC(CCc2ccccc2)CC1)NC1CCN(Cc2ccccc2)C1 (centres undefined)
inhibition, %: 32.9

compound: O=C(CN1CCCC(CCc2ccccc2)C1)NC1CCN(Cc2ccccc2)C1 (centres undefined)
inhibition, %: 26.7

compound: c1ccc(CN2CCC(NCCN3CCC(C(c4ccccc4)c4ccccc4)CC3)C2)cc1 (centres undefined)
inhibition, %: 25.2

# assay system UniProt O42275: give inhibition of c1ccc(CCC2CCN(CCCNC3CCN(Cc4ccccc4)C3)CC2)cc1 (centres undefined)
34.9

# assay system UniProt O42275: give inhibition of c1ccc(CCC2CCCN(CCNC3CCN(Cc4ccccc4)C3)C2)cc1 (centres undefined)
38.5

# assay system UniProt O42275: give inhibition of c1ccc(CC2CCCN(CCNC3CCN(Cc4ccccc4)C3)C2)cc1 (centres undefined)
29.9

# assay system UniProt O42275: give inhibition of O=C(CN1CCCC(Cc2ccccc2)C1)NC1CCN(Cc2ccccc2)C1 (centres undefined)
27.6

# assay system UniProt O42275: give inhibition of c1ccc(CC2CCN(CCNC3CCN(Cc4ccccc4)C3)CC2)cc1 (centres undefined)
21.2

* * *

Reported inhibition is given for each of the following compounds.
testedTarget: Beta-secretase 1 (Homo sapiens, UniProt P56817)
Sequence (P56817 whole entry): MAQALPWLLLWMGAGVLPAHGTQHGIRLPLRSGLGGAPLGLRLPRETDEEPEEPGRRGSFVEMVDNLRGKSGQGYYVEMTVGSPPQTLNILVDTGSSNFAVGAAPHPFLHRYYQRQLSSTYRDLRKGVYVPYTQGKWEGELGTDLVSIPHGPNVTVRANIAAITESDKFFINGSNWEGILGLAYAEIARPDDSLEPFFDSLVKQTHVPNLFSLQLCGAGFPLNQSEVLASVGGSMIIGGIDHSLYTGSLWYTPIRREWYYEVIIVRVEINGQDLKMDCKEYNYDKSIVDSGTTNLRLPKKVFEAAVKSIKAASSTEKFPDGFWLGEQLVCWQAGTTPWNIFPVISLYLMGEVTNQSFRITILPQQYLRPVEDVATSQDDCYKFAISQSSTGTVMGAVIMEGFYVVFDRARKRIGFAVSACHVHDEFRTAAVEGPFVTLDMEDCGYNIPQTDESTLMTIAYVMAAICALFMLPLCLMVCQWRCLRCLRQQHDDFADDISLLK
measurementParameters: 50 uM

compound: c1ccc(CCN2CCN(CCNC3CCN(Cc4ccccc4)C3)CC2)cc1 (stereo not given)
testedTarget: Beta-secretase 1 (Homo sapiens, UniProt P56817)
measurementKind: inhibition
observedResult: 33.5%

Please look at this compound and report its inhibition: O=C(CN1CCN(Cc2ccccc2)CC1)NC1CCN(Cc2ccccc2)C1 (stereo not given)
40.7%

Please look at this compound and report its inhibition: O=C(CCN1CCC(CCc2ccccc2)CC1)NC1CCN(Cc2ccccc2)C1 (stereo not given)
< 10%

Please look at this compound and report its inhibition: O=C(CN1CCC(C(c2ccccc2)c2ccccc2)CC1)NC1CCN(Cc2ccccc2)C1 (stereo not given)
52.2%

Please look at this compound and report its inhibition: O=C(CN1CCN(C(c2ccccc2)c2ccccc2)CC1)NC1CCN(Cc2ccccc2)C1 (stereo not given)
40%

* * *

protocolNotes: Antioxidant activity assessed as increase in total ferric ion reducing activity at 75 uM using FeCl3.H2O and TPTZ incubated for 5 mins by FRAP assay relative to control
Assay type: functional
Set-up: scale not given: the % may be the effect or the level left
Consider the reported Activity of an entry and match it to a band in interval 1 = under 4%, interval 2 = from 4% up to 20%, interval 3 = 20% and over

Below are worked cases with known answers.
molecule: c1ccc(CC2CCCN(CCNC3CCN(Cc4ccccc4)C3)C2)cc1 (stereo not drawn)
classification: interval 3
//
molecule: c1ccc(CCC2CCCN(CCNC3CCN(Cc4ccccc4)C3)C2)cc1 (stereo not drawn)
classification: interval 1

Any idea which band c1ccc(CN2CCC(NCCN3CCCC(c4ccccc4)C3)C2)cc1 (stereo not drawn) is in?
interval 2

Any idea which band c1ccc(CCC2CCN(CCNC3CCN(Cc4ccccc4)C3)CC2)cc1 (stereo not drawn) is in?
interval 1

Any idea which band c1ccc(CN2CCC(NCCN3CCN(c4ccccc4)CC3)C2)cc1 (stereo not drawn) is in?
interval 3

Any idea which band c1ccc(CCN2CCN(CCNC3CCN(Cc4ccccc4)C3)CC2)cc1 (stereo not drawn) is in?
interval 2

Any idea which band O=C(CN1CCC(Cc2ccccc2)CC1)NC1CCN(Cc2ccccc2)C1 (stereo not drawn) is in?
interval 1

Any idea which band c1ccc(CC2CCN(CCNC3CCN(Cc4ccccc4)C3)CC2)cc1 (stereo not drawn) is in?
interval 2

* * *

Below are molecules with their IC50 as measured on Beta-secretase 1 (Homo sapiens).
Give the value, in units of µM, as a plain number.

molecule: c1ccc(CN2CCC(NCCN3CCC(C(c4ccccc4)c4ccccc4)CC3)C2)cc1 (configuration not stated)
observedResult: 49.8

# assay system Beta-secretase 1 (Homo sapiens): give IC50 of O=C(CN1CCC(C(c2ccccc2)c2ccccc2)CC1)NC1CCN(Cc2ccccc2)C1 (configuration not stated)
55.2

* * *

testedTarget: UniProt P81908
protocolNotes: Inhibition of equine serum BuChE at 10 uM using butyrylthiocholine chloride as substrate pre-incubated for 5 mins followed by substrate addition and measured after 5 mins by Ellman's method relative to control
measurementKind: inhibition

compound: O=C(CN1CCN(c2ccccc2)CC1)NC1CCN(Cc2ccccc2)C1 (stereo not given)
testedTarget: UniProt P81908
inhibition: < 10%
--
compound: c1ccc(CCN2CCN(CCNC3CCN(Cc4ccccc4)C3)CC2)cc1 (stereo not given)
testedTarget: UniProt P81908
inhibition: 25.7%
--
compound: O=C(CN1CCC(C(c2ccccc2)c2ccccc2)CC1)NC1CCN(Cc2ccccc2)C1 (stereo not given)
testedTarget: UniProt P81908
inhibition: 24.6%
--
compound: O=C(CCN1CCC(CCc2ccccc2)CC1)NC1CCN(Cc2ccccc2)C1 (stereo not given)
testedTarget: UniProt P81908
inhibition: 16.3%
--
compound: c1ccc(CN2CCN(CCNC3CCN(Cc4ccccc4)C3)CC2)cc1 (stereo not given)
testedTarget: UniProt P81908
inhibition: 36.7%
--
compound: O=C(CN1CCC(CCc2ccccc2)CC1)NC1CCN(Cc2ccccc2)C1 (stereo not given)
testedTarget: UniProt P81908
inhibition: 33.1%

Please look at this compound and report its inhibition: O=C(CN1CCC(c2ccccc2)CC1)NC1CCN(Cc2ccccc2)C1 (stereo not given)
33.3%

Please look at this compound and report its inhibition: O=C(CN1CCC(Cc2ccccc2)CC1)NC1CCN(Cc2ccccc2)C1 (stereo not given)
36.1%

Please look at this compound and report its inhibition: O=C(CN1CCN(C(c2ccccc2)c2ccccc2)CC1)NC1CCN(Cc2ccccc2)C1 (stereo not given)
< 10%

Please look at this compound and report its inhibition: O=C(CN1CCN(CCc2ccccc2)CC1)NC1CCN(Cc2ccccc2)C1 (stereo not given)
15.3%

* * *

Reported Activity is given for each of the following compounds.
protocolNotes: Antioxidant activity assessed as ABTS radical scavenging activity at 150 uM measured after 30 mins by spectrophotometric assay relative to control
Format: functional
Give the value, in units of %, as a plain number.

Solved cases (10 shown):
compound: O=C(CN1CCC(Cc2ccccc2)CC1)NC1CCN(Cc2ccccc2)C1 (stereo not drawn)
Activity, %: 20
--
compound: c1ccc(CN2CCC(NCCN3CCC(c4ccccc4)CC3)C2)cc1 (stereo not drawn)
Activity, %: 75
--
compound: c1ccc(CCC2CCCN(CCNC3CCN(Cc4ccccc4)C3)C2)cc1 (stereo not drawn)
Activity, %: 60
--
compound: O=C(CN1CCN(c2ccccc2)CC1)NC1CCN(Cc2ccccc2)C1 (stereo not drawn)
Activity, %: 66
--
compound: c1ccc(CN2CCC(NCCN3CCN(c4ccccc4)CC3)C2)cc1 (stereo not drawn)
Activity, %: 98
--
compound: c1ccc(CC2CCCN(CCNC3CCN(Cc4ccccc4)C3)C2)cc1 (stereo not drawn)
Activity, %: 80
--
compound: c1ccc(CN2CCC(NCCN3CCCC(c4ccccc4)C3)C2)cc1 (stereo not drawn)
Activity, %: 85
--
compound: Cc1c(C)c2c(c(C)c1O)CCC(C)(C(=O)O)O2 (stereo not drawn)
Activity, %: 100
--
compound: c1ccc(CN2CCN(CCNC3CCN(Cc4ccccc4)C3)CC2)cc1 (stereo not drawn)
Activity, %: 84
--
compound: c1ccc(CN2CCC(NCCN3CCN(C(c4ccccc4)c4ccccc4)CC3)C2)cc1 (stereo not drawn)
Activity, %: 77

Please look at this compound and report its Activity: c1ccc(CCC2CCN(CCNC3CCN(Cc4ccccc4)C3)CC2)cc1 (stereo not drawn)
29

Please look at this compound and report its Activity: c1ccc(CC2CCN(CCNC3CCN(Cc4ccccc4)C3)CC2)cc1 (stereo not drawn)
43

Please look at this compound and report its Activity: c1ccc(CCN2CCN(CCNC3CCN(Cc4ccccc4)C3)CC2)cc1 (stereo not drawn)
73
